Test system: CAKI-1 renal
test name: NCI tumour cell line growth inhibition, 48 h
Consider the following compounds; for each one, report its TGI.

For this compound ( COC(=O)C1=C(C(=O)OC)SC(=C2c3ccsc3-c3sccc32)S1 ), measured TGI is > 100 µM

For this compound ( O=c1oc2c3ccc4ccccc4c3n(CCN3CCOCC3)c2c2ccccc12 ), measured TGI is > 100 µM

For this compound ( COc1ccc(Nc2c3c4c(cccc4[nH]c2=O)C(=O)c2ccccc2-3)cc1 ), measured TGI is 1.23 µM

For this compound ( CCOC(=O)C1c2[nH]c3ccccc3c2CCN1C(=O)c1ccco1 (stereo not drawn) ), measured TGI is > 10 µM

For this compound ( COC(=O)c1ccccc1/C=C1\Cc2cc3c(cc2C1=O)CCC3 ), measured TGI is > 100 µM

For this compound ( CC1=NN(c2nc(N)nc(C(C)Sc3cc(Cl)c(C)cc3S(N)(=O)=O)n2)C(C)(C)C1 (stereo not drawn) ), measured TGI is > 10 µM

For this compound ( O=C1C(c2ccc([N+](=O)[O-])cc2)=[N+]([O-])c2ccccc21 ), measured TGI is > 100 µM

For this compound ( CC(C)(C)c1ccc(-c2nc3ccccc3c(=O)o2)cc1 ), measured TGI is > 100 µM

For this compound ( CSC(=NC1CC(n2cc(C)c(=O)[nH]c2=O)OC1CO)NC#N (stereo not drawn) ), measured TGI is > 100 µM

For this compound ( Brc1ccccc1/C=C\C1(c2ccccc2)OCCO1 ), measured TGI is 16.3 µM

For this compound ( CCCn1cc(C2=C(c3cn(C)c4ccccc34)C(=O)NC2=O)c2ccccc21 ), measured TGI is > 23.2 µM

For this compound ( Cn1c(=O)nc2n(CCO)ccnc-2c1=O ), measured TGI is > 100 µM

For this compound ( C=C1C(=O)O[C@H]2[C@H]1CC/C(COC(=O)/C=C\C(=O)NCc1ccc(Cn3c(=O)sn(-c4ccc(OC)cc4)c3=O)cc1)=C\CC[C@@]1(C)O[C@@H]21 ), measured TGI is 0.997 µM

###

System: OVCAR-4 ovarian
test name: NCI tumour cell line growth inhibition, 48 h
measured property: TGI

For this compound ( CCc1ccc(CCC(=O)Nc2ncc(Cc3cc(Cl)ccc3Cl)s2)o1 ), measured TGI is 12.6 µM

For this compound ( COc1ccc(N2C(=O)C3c4[nH]c5ccccc5c4C4CCCCCCCC4C3C2=O)cc1 (stereo not given) ), measured TGI is > 10 µM

For this compound ( O=c1c2c(sc3ccccc13)NCN(CCc1ccccc1)C2 ), measured TGI is > 100 µM

For this compound ( CC(C)c1ccc2c(N=Nc3ccc(S(N)(=O)=O)cc3)c(O)[nH]c2c1 ), measured TGI is > 25 µM

For this compound ( O=C(N1CCOCC1)C1(c2ccccc2)CCNCC1 ), measured TGI is > 100 µM

For this compound ( O=C(CCCCCCC(=O)N/N=C/c1ccc(N(c2ccccc2)c2ccccc2)cc1)NO ), measured TGI is 8.72 µM

For this compound ( O=C1NCC2(CCN(Cc3ccccc3)CC2)N1 ), measured TGI is > 100 µM

For this compound ( Fc1ccc(CNc2c3ccccc3nc3ccccc23)cc1 ), measured TGI is 7.34 µM

For this compound ( COc1ccc(C(=O)C(c2ccc(OC)cc2)C2C(=O)Oc3ccccc32)cc1 (stereo not given) ), measured TGI is > 100 µM

For this compound ( Nc1ccn([C@H]2CO[C@@H](CO)O2)c(=O)n1 ), measured TGI is > 100 µM

For this compound ( COc1cc(C(=O)NC2CCN(C)CC2)ccc1Nc1ncc2c(n1)N(C1CCCC1)CC(F)(F)C(=O)N2C ), measured TGI is 12.5 µM

For this compound ( Cc1[nH]c2ncn3ncnc3c2c1Cc1ccccc1 ), measured TGI is > 100 µM

For this compound ( Cc1cc2c(cc1C)N1Cc3c(ccc(C)c3C)N(C2)C1 (tested in a mixture with another compound) ), measured TGI is > 100 µM

For this compound ( COC(=O)c1ccccc1/C=C1\Cc2cc3c(cc2C1=O)CCC3 ), measured TGI is > 100 µM

For this compound ( Cc1c(C)c(S(=O)(=O)N(CCCCCN)OCCCN)c(C)c2c1OC(C)(C)CC2 ), measured TGI is 13.3 µM

###

Consider the following compounds; for each one, report its TGI.
System: RPMI-8226 leukemia
test name: NCI tumour cell line growth inhibition, 48 h

For this compound ( COc1cc(C2c3cc4c(cc3OC3(O)COC(=O)C23)OCO4)cc(OC)c1OC (stereo unspecified) ), measured TGI is > 100 µM

For this compound ( Cc1cc2c(cc1C)N1Cc3c(ccc(C)c3C)N(C2)C1 (tested in a mixture with another compound) ), measured TGI is > 100 µM

For this compound ( CC1(C)CC[C@]2(C(=O)n3ccnc3)CC[C@]3(C)[C@H](C(=O)C=C4[C@@]5(C)C=C(C#N)C(=O)C(C)(C)[C@@H]5CC[C@]43C)[C@@H]2C1 ), measured TGI is < 0.01 µM

For this compound ( Nc1ccccc1/C=N\Nc1ccccc1 ), measured TGI is > 100 µM

For this compound ( O=C(CC(=O)N(C(=O)c1ccccc1)c1ccc(Cl)cc1)N/N=C\c1ccccc1O ), measured TGI is > 100 µM

For this compound ( O=C(CC1(O)C(=O)Nc2c(Cl)cccc21)c1ccccc1 (stereo unspecified) ), measured TGI is > 100 µM

###

Consider the following compounds; for each one, report its TGI.
Test system: HL-60(TB) leukemia
test name: NCI tumour cell line growth inhibition, 48 h
Give your result in µM as a bare value.

For this compound ( C=CC1(c2ccc3ccccc3c2)OCC(CC)(CC)CO1 ), measured TGI is 41.4

For this compound ( COc1cc(-c2cc(/C=C/C(=O)c3ccc4c(c3)OCO4)[nH]n2)cc(OC)c1OC ), measured TGI is 6.36

For this compound ( CC/C(Cl)=N\OC(=O)Nc1ccccc1OC(F)(F)F ), measured TGI is 3.6

For this compound ( Nc1ncnc2c1c(-c1cccc(OCc3ccccc3)c1)cn2C1CC(CN2CCCC2)C1 (stereo unspecified) ), measured TGI is 3.03

###

System: MCF7 breast
test name: NCI tumour cell line growth inhibition, 48 h
Consider the following compounds; for each one, report its TGI.
Give your result in µM as a bare value.

For this compound ( O=C(CSc1nc2ccc([N+](=O)[O-])cc2[nH]1)Nc1cccc(Cl)c1 ), measured TGI is 10.5

For this compound ( NC(=O)c1nnn(Cc2cc(Cl)c(C(=O)c3ccc(Cl)cc3)c(Cl)c2)c1N ), measured TGI is 32.9

For this compound ( COc1ccc(OC)c(C2CCCc3c2cnc2nc(N)nc(N)c32)c1 (centres undefined) ), measured TGI is 0.017

###

Test system: LOX IMVI melanoma
test name: NCI tumour cell line growth inhibition, 48 h
Consider the following molecules; for each one, report its TGI.

For this molecule ( O=C(O)CN1CCNCCN(CC(=O)O)CCNCC1 ), measured TGI is > 100 µM

For this molecule ( O=C1NC2OCC(O)C(O1)C2O (centres undefined) ), measured TGI is > 100 µM

For this molecule ( CC1(C)Cc2cccc(OCC(O)CN3CCN(c4ccc(F)cc4)CC3)c2O1 (centres undefined) ), measured TGI is > 50 µM

For this molecule ( O=C(O)Cn1nnc2c(=O)[nH][nH]c(=O)c21 ), measured TGI is > 100 µM

###

System: HOP-62 NSCLC
test name: NCI tumour cell line growth inhibition, 48 h
Consider the following compounds; for each one, report its TGI.

Record Cc1cccc2nc3n(c12)C(=O)c1ccccc1-3 ; system HOP-62 NSCLC; TGI = > 100 µM

Record COC(=O)[C@@]12CC[C@]1(C(=O)OC)C1C(C)=CC(=O)O[C@@]12C (some centres undefined) ; system HOP-62 NSCLC; TGI = > 100 µM

Record O=C1ON(Cc2ccccc2)C(c2ccccc2)N1c1ccccc1 (centres undefined) ; system HOP-62 NSCLC; TGI = > 100 µM

Record C/C(=N\Nc1ccc2ccccc2n1)c1ccccc1O ; system HOP-62 NSCLC; TGI = > 47.9 µM
